# System: T1, RXFP1_((1–72)) (human)
# T1 sequence (Q9HBX9 1-72, looked up): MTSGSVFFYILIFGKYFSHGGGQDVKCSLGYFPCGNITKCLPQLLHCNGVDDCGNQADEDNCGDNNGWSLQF
# Test name: NMR titration; 2D 1H-15N HSQC; 50 μM 15N-labelled RXFP1(1–72) titrated with 25-500 μM H2 relaxin; 50 mM imidazole, 10 mM CaCl2, pH 6.8, 25 °C; fit of the shifts of Asp51, Ala55 and Thr61
Measurement kind: pKd
Give only the number. pKd is defined as minus log10 of concentration in molar units.

// lookup pKd for H2 relaxin (ligand, human) chain 1: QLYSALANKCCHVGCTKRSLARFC chain 2: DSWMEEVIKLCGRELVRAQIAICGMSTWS
3.70

Attribution: paper PMC4837482
